Data origin: patent US20220298141A1

Target: Human Factor XIIa (Homo sapiens, UniProt P00748)
Sequence (P00748 373-615 limits assumed): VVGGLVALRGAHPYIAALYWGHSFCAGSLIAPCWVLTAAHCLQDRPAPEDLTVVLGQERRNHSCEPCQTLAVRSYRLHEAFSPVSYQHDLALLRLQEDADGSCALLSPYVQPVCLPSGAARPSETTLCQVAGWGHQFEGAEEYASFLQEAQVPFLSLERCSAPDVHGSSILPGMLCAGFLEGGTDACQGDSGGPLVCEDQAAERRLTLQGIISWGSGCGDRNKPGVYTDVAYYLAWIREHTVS
Sequence (P00748 20-372 partner limits assumed): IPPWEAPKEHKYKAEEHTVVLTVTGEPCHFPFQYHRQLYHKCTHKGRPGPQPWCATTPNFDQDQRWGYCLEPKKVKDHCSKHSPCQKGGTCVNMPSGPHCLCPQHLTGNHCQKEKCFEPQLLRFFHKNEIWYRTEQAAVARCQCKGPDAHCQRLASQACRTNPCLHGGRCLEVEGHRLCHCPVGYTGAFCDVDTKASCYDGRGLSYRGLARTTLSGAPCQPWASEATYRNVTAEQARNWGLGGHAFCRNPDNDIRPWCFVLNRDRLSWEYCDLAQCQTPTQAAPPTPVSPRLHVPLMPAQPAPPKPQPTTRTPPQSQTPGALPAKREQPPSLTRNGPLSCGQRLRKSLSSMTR
pIC50: −log10 of the molar value.

- Molecule: "CN1CCC(COc2ncc(C(=O)NCc3ccc4c(N)nccc4c3)cc2Cl)CC1 [Example 13.17]"
  pIC50: "4.40 to 5.00"
- Molecule: "Nc1nccc2cc(CNC(=O)c3cnc(NCCn4cncn4)c(Cl)c3)ccc12 [Example 11.31]"
  pIC50: "4.40 to 5.00"
- Molecule: "Nc1nccc2cc(CNC(=O)c3ccc(CN4CCN(c5ccncc5)CC4)c(Cl)c3)ccc12 [Example 29.07]"
  pIC50: "4.40 to 5.00"
- Molecule: "Nc1nccc2cc(CNC(=O)c3cnc(CN4CCN(c5ccncc5)CC4)c(Cl)c3)ccc12 [Example 29.08]"
  pIC50: "4.40 to 5.00"
